- Tested on: NCI-H522 lung
- Method: NCI tumour cell line growth inhibition, 48 h
The compounds listed here are annotated with their TGI.

Compound	TGI
S=C(N/N=C\C=N/NC(=S)N1CCCCCC1)N1CCCCCC1	> 100 µM
COc1ccc(/C=C/c2cc(O)cc(OC)c2)cc1	> 100 µM
CN(C)c1ccc(/C=C2\C[C@H]3[C@@H]4CC=C5C[C@@H](N6CCCC6)CC[C@]5(C)[C@H]4CC[C@]3(C)[C@H]2O)cc1	2.25 µM
NCCCCCS(=O)(=O)O	> 100 µM
Cc1c[nH]c2c1C13CC1CN(C(=O)c1cc4cc(NC(=O)c5cc6ccccc6o5)ccc4[nH]1)C3=CC2=O (stereo not given)	< 0.001 µM
CC#C[C@@]1(O)CCCC[C@@H]1O	> 100 µM
COc1ccc(-c2nn(-c3cccc(Cl)c3)cc2C=C(C#N)C#N)cc1	5.76 µM
C/C(=N\NC(N)=O)C(CN1CCCCC1)C(c1ccccc1)c1c(O)c2ccccc2oc1=O (stereo not given)	> 100 µM
O=C(Nn1c(-c2ccccc2)nc2ccccc2c1=O)c1ccccn1	> 100 µM
CC1(O)C=CC2CCC1C2O (stereo not given)	> 100 µM
O=C(C1=C(C(=O)c2ccccc2)SC2(S1)C(C(=O)c1ccccc1)=C(C(=O)c1ccccc1)Sc1c2ssc1=O)c1ccccc1	85.5 µM
CN(CCc1ccc(Cl)c(Cl)c1)[C@H]1CCCC[C@H]1N1CCCC1	> 100 µM
CCOC(=O)c1sc(-c2ccc(OS(=O)(=O)c3cccs3)c(C=O)c2)nc1C	3.43 µM
NC(N)=N/N=C/c1c(-c2ccc([N+](=O)[O-])cc2)nc2sccn12	3.83 µM
C=CCC(CNC(=O)OCc1ccccc1)O[Si](C)(C)C(C)(C)C (stereo not given)	64.8 µM
C=CN1C(=O)OC(c2ccccc2)C1c1ccccc1 (stereo not given)	> 100 µM
CCN(CC)CCO/N=C1\CC[C@H]2[C@@H]3CC=C4C[C@@H](O)CC[C@]4(C)[C@H]3CC[C@]12C	34 µM
c1ccc2c(CNCCCCCCNCc3cccc4ccccc34)cccc2c1	9.78 µM
O=C1NC(=S)N/C1=C/c1ccccc1O	> 100 µM
COc1ccc(C(O)c2ccc3c(c2)OCO3)cc1 (stereo not given)	> 100 µM
Cc1cnc[nH]c1=O	> 100 µM
COc1cc(C)c(C(=O)O[C@H]2[C@H](O[C@H]3[C@@H](O)COC(O[C@H]4C[C@H]5[C@@H]6CC=C7C[C@@H](O)CC[C@]7(C)[C@H]6CC[C@]5(C)[C@H]4[C@H](C)C(=O)CCC(C)C)[C@@H]3OC(C)=O)OC[C@@H](O)[C@@H]2O)c(C)c1 (stereo not given in full)	0.334 µM
Cc1cc2ccccc2n1CC(=O)NCC(C)C	> 100 µM
CC(=O)Oc1ccc(OC(C)=O)c2ccccc12	5.41 µM
COC(=O)C1=C(O)C(C(=O)OC)[C@@]2(O)[C@@H](C(=O)OC)C(c3ccc(OC(=O)/C(=C/c4ccc(Cl)cc4)c4ccc(Cl)cc4)cc3)C[C@@H]1[C@@H]2C(=O)OC (stereo not given in full)	> 100 µM
O=C(O)c1c(O)c2cc(Br)ccc2oc1=O	> 100 µM
Cc1cc(S(=O)(=O)Nc2nnc3c(C(F)(F)F)cc(Cl)cn23)c(S)cc1Cl	> 100 µM
CN(C(=O)C1(C(=O)C=[N+]=[N-])CC1)c1ccccc1	> 100 µM
N#CCCC1C(C#N)C2CC1C1C3C=CC(C3)C21 (stereo not given)	> 100 µM
O=C(/C=C/c1ccc(C(F)(F)F)cc1)c1ccc(Nc2nc(NCCO)nc(NCCO)n2)cc1	6.66 µM
C/C(=C/CO[Si](C)(C)C(C)(C)C)C(=O)N(C)c1ccccc1I	31.5 µM
Cc1nc(C)c(C(=O)Nc2cccc3c2C(=O)NC3=O)cc1C(=O)Nc1cccc2c1C(=O)NC2=O	> 100 µM
O=C(c1ccccc1)c1c(C(F)(F)F)n([O-])c2ccccc2[n+]1=O	2 µM
COC(=O)c1c[nH]c(=O)[nH]c1=O	> 100 µM
CC(C)CCC[C@@H](C)[C@H]1CC[C@H]2[C@@H]3CC=C4C[C@@H](OC(=O)c5cccc6c(=O)c7ccccc7[nH]c56)CC[C@]4(C)[C@H]3CC[C@]12C	> 75 µM
Cc1cc(C)cc(-n2c3nc(=O)n(C)c(=O)c-3nc3ccccc32)c1	44.2 µM
COc1ccc(N2CCN(C(=O)c3ccccc3Nc3ccnc(C(F)(F)F)c3)CC2)cc1	> 100 µM
COc1ccc(-c2ccc3c(NC(=O)C4CC4)n[nH]c3n2)cc1	> 25 µM
CC(C)(CO)CNc1nc(N)nc(Cl)c1N	> 100 µM
CC1(C)CCC[C@]23C(=O)O[C@](O)(C(=O)C4=C[C@@](C)(/C=C/CCCc5ccc6ccc7cccc8ccc5c6c78)CC[C@@]42O)[C@@H]13	0.475 µM
